- Measured Target: 5-hydroxytryptamine receptor 6 (Homo sapiens, UniProt P50406)
- Sequence (P50406 whole entry): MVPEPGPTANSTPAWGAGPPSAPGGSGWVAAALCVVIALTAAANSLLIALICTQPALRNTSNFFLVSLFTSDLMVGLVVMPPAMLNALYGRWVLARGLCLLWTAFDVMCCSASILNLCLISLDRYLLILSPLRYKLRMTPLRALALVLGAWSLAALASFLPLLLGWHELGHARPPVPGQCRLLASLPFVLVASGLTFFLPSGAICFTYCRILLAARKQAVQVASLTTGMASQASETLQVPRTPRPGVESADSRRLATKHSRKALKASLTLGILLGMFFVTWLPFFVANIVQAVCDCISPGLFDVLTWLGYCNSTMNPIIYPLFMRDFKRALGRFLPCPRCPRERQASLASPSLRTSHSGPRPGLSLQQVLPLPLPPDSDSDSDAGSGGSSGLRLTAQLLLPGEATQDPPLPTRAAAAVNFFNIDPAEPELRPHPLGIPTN
- Assay Overview: Agonist activity at human 5HT6 receptor expressed in HEK293F cells assessed as stimulation of cAMP level after 30 mins by HTRF assay […]
- Type: functional, cell-based
- Condition Description: read-out: EC50
Experimental Endpoint: EC50 (nM)

>>> value_reported("CC1=C(CCN(C)C)c2cc(NS(=O)(=O)c3csc4ccccc34)ccc2C1")
0.3

[A] CC1=C(CCN(C)C)c2cc(NS(=O)(=O)c3ccc4ccccc4c3)ccc2C1
[B] CC1=C(CCN(C)C)c2cc(NS(=O)(=O)c3c(Cl)nc4sccn34)ccc2C1
[C] CC1=C(CCN(C)C)c2cc(S(=O)(=O)Nc3cccc4ccccc34)ccc2C1
[D] CN(C)CCC1=CCc2ccc(NS(=O)(=O)c3c(Cl)nc4sccn34)cc21
*Q* Arrange items by their EC50 values in increasing order. Use the labels to give the requested order.
*A* D, B, A, C

* * *

Target sequence: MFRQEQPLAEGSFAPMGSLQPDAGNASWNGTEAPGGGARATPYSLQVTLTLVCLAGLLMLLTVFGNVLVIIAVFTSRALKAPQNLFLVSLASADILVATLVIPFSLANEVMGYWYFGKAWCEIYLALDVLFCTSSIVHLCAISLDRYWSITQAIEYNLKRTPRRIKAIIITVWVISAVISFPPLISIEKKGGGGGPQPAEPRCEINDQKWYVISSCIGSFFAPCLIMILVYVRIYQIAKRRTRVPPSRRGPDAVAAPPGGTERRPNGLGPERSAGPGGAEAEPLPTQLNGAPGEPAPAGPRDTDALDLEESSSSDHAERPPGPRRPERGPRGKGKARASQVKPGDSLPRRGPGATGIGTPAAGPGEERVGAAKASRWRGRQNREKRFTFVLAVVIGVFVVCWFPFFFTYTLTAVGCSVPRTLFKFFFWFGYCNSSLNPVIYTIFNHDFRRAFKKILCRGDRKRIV
pIC50: −log10 of the molar value.
Experimental Endpoint: pIC50

>>> value_reported("CC1=C(CCN(C)C)c2cc(NS(=O)(=O)c3csc4ccccc34)ccc2C1")
6.15
>>> value_reported("CC1=C(CCN(C)C)c2cc(NS(=O)(=O)c3c(Cl)nc4sccn34)ccc2C1")
"< 6.00"

*Q* Using the record for CN(C)CCC1=CCc2ccc(NS(=O)(=O)c3c(Cl)nc4sccn34)cc21 , report its pIC50.
*A* < 6.00

* * *

// each record: one item and its pKi for 5-hydroxytryptamine receptor 6 (Homo sapiens)
pKi: −log10 of the molar value.
Experimental Endpoint: pKi

The cases that follow already have their pKi on record.
>>> value_reported("CN(C)CCc1cn(S(=O)(=O)c2ccccc2)c2ccccc12")
8.52
>>> value_reported("CC1=C(CCN(C)C)c2cc(NS(=O)(=O)c3csc4ccccc34)ccc2C1")
7.28
>>> value_reported("O=S(=O)(Nc1ccc2c(c1)C(CCN1CCCCC1)=CC2)c1c(Cl)nc2sccn12")
7.51

[1] CNc1cc(NS(=O)(=O)c2ccc(N)cc2)nc(NC)n1
[2] CC1=C(CCN2CCCC2)c2cc(NS(=O)(=O)c3c(Cl)nc4sccn34)ccc2C1
[3] CN(C)CCC1=CCc2ccc(NS(=O)(=O)c3c(Cl)nc4sccn34)cc21
*Q* Order the items by recorded pKi; the first position goes to the largest value. Order the labels as requested and list them.
*A* 3, 2, 1
(3: 8.00, 2: 7.77, 1: 7.33)

* * *

- Measured Target: 5-hydroxytryptamine receptor 6 (Homo sapiens, UniProt P50406)
- Assay Overview: Agonist activity at human 5HT6 receptor expressed in HEK293F cells assessed as stimulation of cAMP level after 30 mins by HTRF assay […]
- Type: functional, cell-based
Experimental Endpoint: Emax (%)

Here is how some compounds turned out for Emax.
>>> value_reported("CN(C)CCc1c[nH]c2ccc(NS(=O)(=O)c3ccc4c(Cl)cccc4c3)cc12")
96
>>> value_reported("CC1=C(CCN(C)C)c2cc(NS(=O)(=O)c3c(Cl)nc4sccn34)ccc2C1")
98
>>> value_reported("CC1=C(CCN(C)C)c2cc(S(=O)(=O)Nc3cccc4ccccc34)ccc2C1")
95
>>> value_reported("CC1=C(CCN(C)C)c2cc(NS(=O)(=O)c3csc4ccccc34)ccc2C1")
101
>>> value_reported("CN(C)CCC1=CCc2ccc(NS(=O)(=O)c3c(Cl)nc4sccn34)cc21")
99

[P] CC1=C(CCN2CCCC2)c2cc(NS(=O)(=O)c3sc4ccc(Cl)cc4c3C)ccc2C1
[Q] O=S(=O)(Nc1ccc2c(c1)C(CCN1CCCCC1)=CC2)c1c(Cl)nc2sccn12
[R] CC1=C(CCN2CCCC2)c2cc(NS(=O)(=O)c3c(Cl)nc4sccn34)ccc2C1
*Q* Place the items in sequence of falling Emax. Output the labels ranked as instructed.
*A* P, R, Q

* * *

- Measured Target: 5-hydroxytryptamine receptor 6 (Homo sapiens)
- Assay Overview: Displacement of [3H]LSD from human 5HT6 receptor expressed in HEK293 cells at 100 uM by liquid scintillation counting
- Format: cell-based
Experimental Endpoint: Activity (%)

See these solved cases before continuing.
>>> value_reported("CCN(c1ccc2c(c1)C(CCN(C)C)=C(C)C2)S(=O)(=O)c1sc(C)c2cc(Cl)ccc12")
3
>>> value_reported("CC1=C(CCN(C)C)c2cc(NS(=O)(=O)c3ccc4ccccc4c3)ccc2C1")
71
>>> value_reported("O=S(=O)(Nc1ccc2c(c1)C(CCN1CCCCC1)=CC2)c1c(Cl)nc2sccn12")
81
>>> value_reported("CC1=C(CCN2CCCC2)c2cc(NS(=O)(=O)c3cccc4nsnc34)ccc2C1")
19
>>> value_reported("CN(C)CCC1=CCc2ccc(NS(=O)(=O)c3c(Cl)nc4sccn34)cc21")
87

[P] CC1=C(CCN(C)C)c2cc(NS(=O)(=O)c3cccc4nsnc34)ccc2C1
[Q] CC1=C(CCN(C)C)c2cc(NS(=O)(=O)c3csc4ccccc34)ccc2C1
[R] Cc1c(S(=O)(=O)Nc2ccc3c(c2)C(CCN(C)C)=CC3(C)C)sc2ccc(Cl)cc12
[S] CC1=C(CCN(C)C)c2cc(NS(=O)(=O)c3ccc(N)cc3)ccc2C1
*Q* With regard to Activity, arrange the entries in ascending order, please. Labels, ranked as asked.
*A* R, S, P, Q
(R: 2%, S: 4%, P: 16%, Q: 88%)

* * *

- Measured Target: 5-hydroxytryptamine receptor 6 (Homo sapiens, UniProt P50406)
- Assay Overview: Displacement of [3H]LSD from human 5HT6 receptor expressed in HEK293 cells at 100 uM by liquid scintillation counting
- Type: cell-based
Experimental Endpoint: Activity (%)

Here is how some compounds turned out for Activity.
>>> value_reported("CC1=C(CCN(C)C)c2cc(NS(=O)(=O)c3cccc4ccccc34)ccc2C1")
78
>>> value_reported("CC1=C(CCN2CCCC2)c2cc(NS(=O)(=O)c3ccc(N)cc3)ccc2C1")
63

[P] CC1=C(CCN(C)C)c2cc(S(=O)(=O)Nc3cccc4ccccc34)ccc2C1
[Q] CC1=C(CCN2CCCC2)c2cc(NS(=O)(=O)c3c(Cl)nc4sccn34)ccc2C1
[R] CN(C)CCC1=CC(C)(C)c2ccc(NS(=O)(=O)c3c(Cl)nc4sccn34)cc21
*Q* Rank the items in ascending order with respect to Activity. Give me the labels in the order the question wants.
*A* R, P, Q
(R: 24%, P: 51%, Q: 81%)

* * *

- Measured Target: 5-hydroxytryptamine receptor 2C (Homo sapiens, UniProt P28335)
- Sequence (P28335 whole entry): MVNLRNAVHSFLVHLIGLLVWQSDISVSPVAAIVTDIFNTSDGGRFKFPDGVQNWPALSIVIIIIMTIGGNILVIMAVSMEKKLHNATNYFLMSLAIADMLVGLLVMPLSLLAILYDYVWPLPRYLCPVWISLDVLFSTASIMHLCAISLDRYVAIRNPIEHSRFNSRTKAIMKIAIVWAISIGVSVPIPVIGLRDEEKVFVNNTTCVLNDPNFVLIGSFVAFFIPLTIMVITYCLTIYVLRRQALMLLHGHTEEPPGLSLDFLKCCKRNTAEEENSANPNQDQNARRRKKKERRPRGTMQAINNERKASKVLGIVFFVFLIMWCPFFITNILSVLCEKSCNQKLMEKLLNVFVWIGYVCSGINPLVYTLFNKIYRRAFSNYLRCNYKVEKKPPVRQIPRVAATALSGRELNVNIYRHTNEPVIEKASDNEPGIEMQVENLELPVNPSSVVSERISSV
Experimental Endpoint: IC50

*Q* Record lookup: for 5-hydroxytryptamine receptor 2C (Homo sapiens, UniProt P28335), what IC50 belongs to CN(C)CCC1=CCc2ccc(NS(=O)(=O)c3c(Cl)nc4sccn34)cc21 ?
*A* > 1 µM

Data provenance: ChEMBL document CHEMBL1143393
